# Test system: A-431
# TEST NAME: cells
# Assay type: functional, cell-based
# MEASUREMENT CONDITIONS: Homo sapiens, A-431, 72 h
# Description: Antiproliferative activity against human A431 cells after 72 hrs by MTT assay
MEASURED METRIC: log10 IC50 (log10 of the value in µM)
Remember, log10 of IC50, in µM.

Record COc1cc2ncnc(Nc3ccc(OCc4cccc(F)c4)c(Cl)c3)c2cc1OCCCN1CCNCCNCC1 , field log10 IC50: -0.35

====

Here, each record is paired with measured inhibition at 72 h, 1 µM data.
# TEST NAME: in vitro
# MEASUREMENT CONDITIONS: mouse, L929 cells
# Description: Cytotoxicity against mouse L929 cells assessed as cell growth inhibition at 1 uM after 72 hrs by MTT assay relative to control

* CS(=O)(=O)CCNCc1ccc(-c2ccc3ncnc(Nc4ccc(OCc5cccc(F)c5)c(Cl)c4)c3c2)o1 | 35%

Kindly review the next molecule as well.
Sure, the documented inhibition at 72 h, 1 µM for COc1cc2ncnc(Nc3ccc(OCc4cccc(F)c4)c(Cl)c3)c2cc1OCCCN1CCNCCNCCNCC1 is 37.6%

====

# TESTED ON: Receptor tyrosine-protein kinase erbB-2 (Homo sapiens, UniProt P04626)
# Sequence (P04626 whole entry, the tested form may be a part): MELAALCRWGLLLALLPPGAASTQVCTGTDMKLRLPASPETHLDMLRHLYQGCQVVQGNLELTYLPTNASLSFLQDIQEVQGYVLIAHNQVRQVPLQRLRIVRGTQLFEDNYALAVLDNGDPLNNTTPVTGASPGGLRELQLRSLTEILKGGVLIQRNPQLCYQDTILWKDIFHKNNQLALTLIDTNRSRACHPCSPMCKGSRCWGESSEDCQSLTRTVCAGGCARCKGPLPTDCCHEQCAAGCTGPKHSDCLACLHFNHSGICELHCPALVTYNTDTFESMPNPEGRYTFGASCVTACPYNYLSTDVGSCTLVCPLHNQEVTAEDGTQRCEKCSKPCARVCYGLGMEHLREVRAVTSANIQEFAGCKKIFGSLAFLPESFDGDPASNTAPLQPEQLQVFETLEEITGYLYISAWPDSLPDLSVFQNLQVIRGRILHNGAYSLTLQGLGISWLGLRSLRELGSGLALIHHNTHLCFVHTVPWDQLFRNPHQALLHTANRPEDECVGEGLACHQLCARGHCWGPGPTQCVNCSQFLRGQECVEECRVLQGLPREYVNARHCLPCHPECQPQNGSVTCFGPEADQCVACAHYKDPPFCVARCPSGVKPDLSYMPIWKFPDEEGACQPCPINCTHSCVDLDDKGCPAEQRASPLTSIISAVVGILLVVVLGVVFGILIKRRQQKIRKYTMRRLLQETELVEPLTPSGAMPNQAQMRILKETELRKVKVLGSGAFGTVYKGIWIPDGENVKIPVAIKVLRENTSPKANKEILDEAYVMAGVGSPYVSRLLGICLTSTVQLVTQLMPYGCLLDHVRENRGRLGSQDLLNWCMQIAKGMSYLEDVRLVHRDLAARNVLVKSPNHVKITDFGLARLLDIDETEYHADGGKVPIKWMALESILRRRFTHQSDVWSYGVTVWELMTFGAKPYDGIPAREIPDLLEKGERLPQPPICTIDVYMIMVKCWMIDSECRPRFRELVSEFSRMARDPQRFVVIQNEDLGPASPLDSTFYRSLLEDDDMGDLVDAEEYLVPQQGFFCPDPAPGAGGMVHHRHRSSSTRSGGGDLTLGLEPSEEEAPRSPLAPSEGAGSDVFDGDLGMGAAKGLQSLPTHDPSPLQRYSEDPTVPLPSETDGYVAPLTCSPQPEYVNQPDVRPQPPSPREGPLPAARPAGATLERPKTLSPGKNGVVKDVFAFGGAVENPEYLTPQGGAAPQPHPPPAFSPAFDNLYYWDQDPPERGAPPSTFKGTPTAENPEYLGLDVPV
# TEST NAME: Inhibition of wild type human N-terminal His-tagged HER2 cytoplasmic domain (676 to 1255 residues) expressed in baculovirus expression system after 1 hr in presence of ULight-labeled peptide substrate and ATP by LANCE ultra kinase assay
MEASURED METRIC: IC50 (nM)
Number only, in nM; omit the unit.

* COc1cc2ncnc(Nc3ccc(OCc4cccc(F)c4)c(Cl)c3)c2cc1OCCCN1CCNCCNCC1 | 9.6

Next molecule, please.
// field: IC50; key: COc1cc2ncnc(Nc3ccc(OCc4cccc(F)c4)c(Cl)c3)c2cc1OCCCN1CCNCCNCCNCC1 ; value = 2.1

====

Consider the following molecules and their measured pIC50 readings.
# TESTED ON: Epidermal growth factor receptor (Homo sapiens, UniProt P00533, T790M)
# Sequence (P00533 25-1210 T790M limits assumed): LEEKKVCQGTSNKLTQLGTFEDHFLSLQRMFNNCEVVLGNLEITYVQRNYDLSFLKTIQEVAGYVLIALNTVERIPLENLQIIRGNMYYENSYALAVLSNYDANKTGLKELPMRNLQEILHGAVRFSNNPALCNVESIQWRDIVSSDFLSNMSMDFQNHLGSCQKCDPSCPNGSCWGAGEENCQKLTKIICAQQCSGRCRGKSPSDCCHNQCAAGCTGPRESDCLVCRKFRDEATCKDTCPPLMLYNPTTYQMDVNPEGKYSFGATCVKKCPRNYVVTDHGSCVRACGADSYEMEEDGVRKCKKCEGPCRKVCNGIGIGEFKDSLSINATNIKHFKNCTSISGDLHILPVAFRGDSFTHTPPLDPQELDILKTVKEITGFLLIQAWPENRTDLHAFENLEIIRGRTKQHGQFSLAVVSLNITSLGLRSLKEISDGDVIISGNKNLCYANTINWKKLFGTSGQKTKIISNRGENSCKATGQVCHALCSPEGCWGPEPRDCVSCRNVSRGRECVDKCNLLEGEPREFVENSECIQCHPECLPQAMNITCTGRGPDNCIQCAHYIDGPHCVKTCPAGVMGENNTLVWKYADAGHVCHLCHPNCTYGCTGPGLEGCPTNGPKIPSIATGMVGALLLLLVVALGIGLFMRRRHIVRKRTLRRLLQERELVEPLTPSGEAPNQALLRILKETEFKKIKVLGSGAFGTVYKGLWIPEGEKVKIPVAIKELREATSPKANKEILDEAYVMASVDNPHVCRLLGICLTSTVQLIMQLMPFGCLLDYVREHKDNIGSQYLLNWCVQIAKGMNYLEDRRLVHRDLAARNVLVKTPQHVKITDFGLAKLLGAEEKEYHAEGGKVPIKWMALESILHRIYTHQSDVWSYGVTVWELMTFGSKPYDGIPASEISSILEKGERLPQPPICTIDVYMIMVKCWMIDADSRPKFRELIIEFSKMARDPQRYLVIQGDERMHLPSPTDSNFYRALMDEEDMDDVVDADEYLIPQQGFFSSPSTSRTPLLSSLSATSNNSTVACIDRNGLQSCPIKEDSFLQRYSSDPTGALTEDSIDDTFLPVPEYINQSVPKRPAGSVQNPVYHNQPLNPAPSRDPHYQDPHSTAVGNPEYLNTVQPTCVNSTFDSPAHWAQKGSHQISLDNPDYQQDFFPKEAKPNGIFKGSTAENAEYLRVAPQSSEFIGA
Schema: pIC50 number; meaning minus log10 of the concentration expressed in molar units.

- COc1cc2ncnc(Nc3ccc(OCc4cccc(F)c4)c(Cl)c3)c2cc1OCCCN1CCNCCNCCNCC1: 7.78

Read the next record carefully.
Entry COc1cc2ncnc(Nc3ccc(OCc4cccc(F)c4)c(Cl)c3)c2cc1OCCCN1CCNCCNCC1 — recorded pIC50 = 7.39

====

# Test system: A-431;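 further: antiproliferative activity measured with an MTT assay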
# TEST NAME: cells
# Type: functional, cell-based
# MEASUREMENT CONDITIONS: Homo sapiens, A-431, 72 h
MEASURED METRIC: pIC50
// field semantics: pIC50 = negative decimal log of concentration (mol/L)

• COc1cc2ncnc(Nc3ccc(C#N)cc3F)c2cc1OCCCN1CCNCCNCC1 = 4.90
• COc1cccc(Nc2ncnc3cc(OC)c(OCCCN4CCNCCNCCNCC4)cc23)c1 = 5.49
• COc1cc2ncnc(Nc3ccc(F)c(Br)c3)c2cc1OCCCN1CCNCCNCC1 = 5.97

Query COc1cc2ncnc(Nc3cccc(I)c3)c2cc1OCCCN1CCNCCNCCNCC1 yields pIC50 of 5.60
